I'd appreciate it if you could supply IC50 values for the items below.
target: GABA-A receptor; anion channel; assay: Displacement of [3H]TBPS from GABAA receptor in Sprague-Dawley rat brain cortical membrane after 90 mins by liquid scintillation spectrometry
State the answer as a number, implicitly in µM.

Task item: # lookup: GABA-A receptor; anion channel IC50, key = CC(=O)[C@H]1CC[C@H]2[C@@H]3CC[C@@H]4C[C@](C)(O)CC[C@@H]4[C@H]3CC[C@]12C
Reply: 0.055

Task item: # lookup: GABA-A receptor; anion channel IC50, key = C[C@@]1(O)CC[C@H]2[C@H](CC[C@@H]3[C@@H]2CC[C@]2(C)[C@@H](C(=O)Cn4ccnc4)CC[C@@H]32)C1
Reply: 0.021

Task item: # lookup: GABA-A receptor; anion channel IC50, key = C[C@@]1(O)CC[C@H]2[C@H](CC[C@@H]3[C@@H]2CC[C@]2(C)[C@@H](C(=O)Cn4cc5c(n4)CCCC5)CC[C@@H]32)C1
Reply: 0.024

---

target: GABA-A receptor; agonist GABA site; assay: Positive allosteric modulation of recombinant alpha1beta2gamma2 GABAA receptor (unknown origin) expressed in LTK cells assessed as potentiation of GABA-induced channel current treated for 30 s prior to GABA stimulation for 2s by Q-patch assay; assay type: cell-based, Homo sapiens
I'd appreciate it if you could supply log10 of EC50 values for the items below.
A difference of one corresponds to tenfold EC50; all values are log10 with EC50 in µM.

Task item: # return recorded log10 of EC50 for entry CC(=O)[C@H]1CC[C@H]2[C@@H]3CC[C@H]4C[C@H](O)CC[C@]4(C)[C@H]3CC[C@]12C
Reply: -0.63

Task item: # return recorded log10 of EC50 for entry CC(=O)[C@H]1CC[C@H]2[C@@H]3CC[C@@H]4C[C@](C)(O)CC[C@@H]4[C@H]3CC[C@]12C
Reply: -0.43

Task item: # return recorded log10 of EC50 for entry C[C@@]1(O)CC[C@H]2[C@H](CC[C@@H]3[C@@H]2CC[C@]2(C)[C@@H](C(=O)Cn4ncc5cccnc54)CC[C@@H]32)C1
Reply: 0.24

Task item: # return recorded log10 of EC50 for entry C[C@@]1(O)CC[C@H]2[C@@H](CC[C@@H]3[C@@H]2CC[C@]2(C)[C@@H](C(=O)Cn4ncnn4)CC[C@@H]32)C1
Reply: -0.02

Task item: # return recorded log10 of EC50 for entry C[C@@]1(O)CC[C@H]2[C@H](CC[C@@H]3[C@@H]2CC[C@]2(C)[C@@H](C(=O)Cn4ncc5ncccc54)CC[C@@H]32)C1
Reply: 0.40

Task item: # return recorded log10 of EC50 for entry C[C@@]1(O)CC[C@H]2[C@@H](CC[C@@H]3[C@@H]2CC[C@]2(C)[C@@H](C(=O)Cn4ccnn4)CC[C@@H]32)C1
Reply: 0.44

Task item: # return recorded log10 of EC50 for entry C[C@@]1(O)CC[C@H]2[C@H](CC[C@@H]3[C@@H]2CC[C@]2(C)[C@@H](C(=O)Cn4cnnn4)CC[C@@H]32)C1
Reply: 0.34

Task item: # return recorded log10 of EC50 for entry C[C@@]1(O)CC[C@H]2[C@H](CC[C@@H]3[C@@H]2CC[C@]2(C)[C@@H](C(=O)Cn4cc5c(n4)CCCC5)CC[C@@H]32)C1
Reply: -0.14

Task item: # return recorded log10 of EC50 for entry CC(=O)[C@H]1CC[C@H]2[C@@H]3CC[C@H]4C[C@](C)(O)CC[C@]4(C)[C@H]3CC[C@]12C
Reply: -0.58
